test: Solubility of hexaflumuron, solvent added gradually until complete dissolution; type: physicochemical; details: organic solvent or mixture, thermodynamic from solid; solvent: DMA
PROPERTY LABEL: solubility

Measured solubility, O=C(NC(=O)c1c(F)cccc1F)Nc1cc(Cl)c(OC(F)(F)C(F)F)c(Cl)c1 [Hexaflumuron] : > 300 mg/mL

----------
test: Solubility of hexaflumuron, solvent added gradually until complete dissolution; format: physicochemical; details: oil or lipid, thermodynamic from solid; solvent: Paraffin Light Liquid
PROPERTY LABEL: solubility

Quick note, solubility for O=C(NC(=O)c1c(F)cccc1F)Nc1cc(Cl)c(OC(F)(F)C(F)F)c(Cl)c1 [Hexaflumuron] landed at < 100 µg/mL

----------
test: Solubility of hexaflumuron, solvent added gradually until complete dissolution; type: physicochemical; details: organic solvent or mixture, thermodynamic from solid; solvent: NMP
PROPERTY LABEL: solubility

Kindly note the recorded solubility for O=C(NC(=O)c1c(F)cccc1F)Nc1cc(Cl)c(OC(F)(F)C(F)F)c(Cl)c1 , which is > 300 mg/mL

----------
test: Solubility of hexaflumuron, solvent added gradually until complete dissolution; assay type: physicochemical; settings: organic solvent or mixture, thermodynamic from solid; solvent: Acetone
PROPERTY LABEL: solubility

Sure, the documented solubility for O=C(NC(=O)c1c(F)cccc1F)Nc1cc(Cl)c(OC(F)(F)C(F)F)c(Cl)c1 is > 130 mg/mL

----------
Test: Solubility of hexaflumuron, solvent added gradually until complete dissolution
Format: physicochemical
Details: organic solvent or mixture, thermodynamic from solid; solvent: Ethyl acetate
Experimental: In order to produce a formulation in which hexaflumuron was present in stable solution, the solubility of hexaflumuron in various other solvents was investigated. Solubility was determined by adding each solvent gradually to a specific mass of hexaflumuron until complete dissolution was observed.
PROPERTY LABEL: solubility

Briefly, solubility measured for O=C(NC(=O)c1c(F)cccc1F)Nc1cc(Cl)c(OC(F)(F)C(F)F)c(Cl)c1 [Hexaflumuron] : > 75 mg/mL

----------
test: Solubility of hexaflumuron, solvent added gradually until complete dissolution; assay type: physicochemical; details: organic solvent or mixture, thermodynamic from solid; solvent: DMSO
PROPERTY LABEL: solubility

Just so you know, measured solubility for O=C(NC(=O)c1c(F)cccc1F)Nc1cc(Cl)c(OC(F)(F)C(F)F)c(Cl)c1 came out at > 300 mg/mL

----------
system: Atlantic salmon; assay: Safety of formulations based on different solvents after intraperitoneal injection; type: in vivo; conditions: i.p. 0.2 ml; 37.8 g, freshwater 17°C; 3 week period
PROPERTY LABEL: % Mortality (%)
Hi! Could you send only the number? It should be in %, unit omitted.

COMPOUND: COCC(C)O (stereo not shown) [1-methoxy-2-propanol]
% Mortality / %: 100
--
COMPOUND: CCOC(C)=O [Ethyl acetate]
% Mortality / %: 100
--
COMPOUND: CN1CCCC1=O [NMP, n-methyl-2-pyrrolidone]
% Mortality / %: 100

Sample CC(O)CO (stereo not shown) [PG, propylene glycol] ; % Mortality observed: 0

----------
assay: Solubility of hexaflumuron, solvent added gradually until complete dissolution; format: physicochemical; settings: organic solvent or mixture, thermodynamic from solid; solvent: Tetraglycol
PROPERTY LABEL: solubility

Entry O=C(NC(=O)c1c(F)cccc1F)Nc1cc(Cl)c(OC(F)(F)C(F)F)c(Cl)c1 [Hexaflumuron] ; solubility = > 75 mg/mL
